Target: MAPKAPK2 (human)
Experiment: radiometric filter-binding kinase assay
Settings: compound 1.0 µM
Provide the reported residual activity of each item.
All answers are understood in %, so give the number only.

Notebook: `O=C(Nc1nc2cc(C(F)(F)F)cc(NC3CC3)n2n1)c1cccnc1` , residual activity read as 99

Measured residual activity, `CCCC(CCC)C(=O)O` : 85

Entry `Cc1cc(NC(=O)c2cccc(NC(=O)/C=C/CN(C)C)c2)ccc1Nc1nccc(-c2cccnc2)n1` ; residual activity = 100

For record `O=c1c(O)c(-c2ccc(O)c(O)c2)oc2cc(O)c(O)c(O)c12` the listed residual activity is 94

// sample `Cn1nc(Nc2ccc(F)cc2)c2c(N)ncnc21` , its residual activity was 97

Noted for `O=C(Nc1ccccc1-c1cn2c(CN3CCNCC3)csc2n1)c1cnc2ccccc2n1` : its residual activity reads 92

###

Molecular target: UniProt:Q8TD08
Sequence (Q8TD08 whole entry, looked up): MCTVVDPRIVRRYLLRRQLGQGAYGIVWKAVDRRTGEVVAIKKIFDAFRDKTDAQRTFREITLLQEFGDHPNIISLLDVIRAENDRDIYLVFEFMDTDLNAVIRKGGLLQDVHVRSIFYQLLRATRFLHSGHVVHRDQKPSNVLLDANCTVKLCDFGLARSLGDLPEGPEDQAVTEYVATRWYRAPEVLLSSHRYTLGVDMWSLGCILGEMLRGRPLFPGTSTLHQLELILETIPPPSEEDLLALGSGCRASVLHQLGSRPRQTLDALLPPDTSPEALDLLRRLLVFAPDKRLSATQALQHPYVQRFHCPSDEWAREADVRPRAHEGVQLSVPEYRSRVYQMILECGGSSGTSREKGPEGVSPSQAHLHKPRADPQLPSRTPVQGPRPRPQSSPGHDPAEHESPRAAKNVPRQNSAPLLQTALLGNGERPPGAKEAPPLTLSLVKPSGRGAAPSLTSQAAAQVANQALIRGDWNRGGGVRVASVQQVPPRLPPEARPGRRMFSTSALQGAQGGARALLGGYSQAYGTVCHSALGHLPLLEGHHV
Assay: radiometric filter-binding kinase assay
Details: compound 0.1 µM
Label 0 if residual activity falls below 90%; label 1 in every other case.

Please tell me: is the compound `CN1CCN(CCOc2cc(OC3CCOCC3)c3c(Nc4c(Cl)ccc5c4OCO5)ncnc3c2)CC1` at or over 90% in terms of residual activity?
1

In plain terms: is recorded residual activity at least 90% for `CCn1c(-c2nonc2N)nc2cncc(CNC3CCNCC3)c21` ?
1

Record `COc1cc(O)c2c(c1)/C=C/C[C@H](O)[C@H](O)C(=O)/C=C\C[C@H](C)OC2=O` ; criterion: residual activity no lower than 90%. Met?
0

For this compound, is measured residual activity 90% or higher? `O=C(Nc1ccccc1-c1cn2c(CN3CCNCC3)csc2n1)c1cnc2ccccc2n1`
0

Does the reported residual activity for `O=C(Nc1nc2cc(C(F)(F)F)cc(NC3CC3)n2n1)c1cccnc1` fall at or above the 90% mark?
1

Entry `CCCCCc1ccc(/C=C/[C@H](O)[C@@H](CO)NC)cc1` : is its residual activity no less than 90%?
0

Check if residual activity >= 90% (inclusive). Item: `CN(C)C/C=C/C(=O)Nc1cccc(C(=O)Nc2ccc(Nc3nccc(-c4cccnc4)n3)cc2)c1`
0

State whether the measured residual activity reaches 90%, counting equality as reaching it, for `C/C(=C1/C(=O)Nc2ccc(NC(N)=O)cc21)c1ccc[nH]1`
0

###

Record form. Attribute: residual activity. Fill in for each entry.
Target: IRAK1 (human) (UniProt P51617)
Sequence (P51617 whole entry, looked up): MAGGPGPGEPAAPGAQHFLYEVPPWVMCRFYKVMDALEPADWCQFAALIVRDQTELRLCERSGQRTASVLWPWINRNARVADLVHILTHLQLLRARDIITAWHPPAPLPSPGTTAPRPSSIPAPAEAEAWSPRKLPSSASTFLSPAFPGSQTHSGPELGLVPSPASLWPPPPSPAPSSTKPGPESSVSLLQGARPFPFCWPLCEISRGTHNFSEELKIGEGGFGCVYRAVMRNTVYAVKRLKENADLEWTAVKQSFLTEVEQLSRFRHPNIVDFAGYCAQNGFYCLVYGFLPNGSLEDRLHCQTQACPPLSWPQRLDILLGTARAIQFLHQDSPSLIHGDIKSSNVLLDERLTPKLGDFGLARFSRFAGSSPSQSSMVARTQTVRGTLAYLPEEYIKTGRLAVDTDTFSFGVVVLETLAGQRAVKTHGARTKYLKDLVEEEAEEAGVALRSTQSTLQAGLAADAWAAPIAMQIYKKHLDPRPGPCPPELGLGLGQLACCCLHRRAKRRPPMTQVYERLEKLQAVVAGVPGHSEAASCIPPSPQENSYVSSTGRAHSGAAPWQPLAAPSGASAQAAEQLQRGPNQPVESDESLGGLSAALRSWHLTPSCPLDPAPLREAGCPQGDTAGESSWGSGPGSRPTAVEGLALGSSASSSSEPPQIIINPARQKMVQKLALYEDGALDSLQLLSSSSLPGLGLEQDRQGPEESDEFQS
Assay: radiometric filter-binding kinase assay
Conditions: compound 0.1 µM
Give just the number in %; leave the unit off.

Consider `CCn1c(-c2nonc2N)nc2cncc(CNC3CCNCC3)c21` . Its measured residual activity is 99

Entry COc1cc(O)c2c(c1)[C@H]1OC1C[C@H](O)[C@H](O)C(=O)/C=C\C[C@H](C)OC2=O (some centres undefined) ; residual activity = 97

residual activity recorded for this molecule, `CN(C)C/C=C/C(=O)Nc1cccc(C(=O)Nc2ccc(Nc3nccc(-c4cccnc4)n3)cc2)c1` , is 26

Entry `CN1CCN(CCOc2cc(OC3CCOCC3)c3c(Nc4c(Cl)ccc5c4OCO5)ncnc3c2)CC1` , residual activity reported as 84

Per the records, this molecule ( `Cc1ccc(-c2ccc3c(ccc4sc5c(c43)NC[C@@H](C)NC5=O)n2)cn1` ) has residual activity equal to 104

Note to self: residual activity recorded for `Cc1cc(NC(=O)c2cccc(NC(=O)/C=C/CN(C)C)c2)ccc1Nc1nccc(-c2cccnc2)n1` was 93

Input CNC(=O)C1[C@H]2O[C@@](C)([C@@H]1N)n1c3ccccc3c3c4c(c5c6ccccc6n2c5c31)C(=O)NC4 (some centres undefined) . Output residual activity: 2

response.value for `O=C(NCCCNc1nc(Nc2cccc(CN3CCOCC3)c2)ncc1C1CC1)C1CCC1` (field: residual activity) = 96

# molecule `C=CC(=O)N1CCC[C@@H](n2nc(-c3ccc(Oc4ccccc4)cc3)c3c(N)ncnc32)C1` ; its residual activity = 108

###

Biological target: RPS6KA1 KD1 KD2 (human)
Test: radiometric filter-binding kinase assay
Conditions: compound 1.0 µM
Mark each entry MET if its residual activity sits below 50%, and NOT MET for all others.

Check if residual activity falls below 50% for `NC(=O)Nc1ccc2c(c1)/C(=C/c1cc(-c3cccnc3)c[nH]1)C(=O)N2` .
MET

Quick check: residual activity of `Cn1c(=O)c2c(ncn2C)n(C)c1=O` under 50%?
NOT MET

Given the entry `NC(=O)c1cc(-c2ccnc(NC3CCCCC3)c2)nc(N2CCNCC2)c1` , would its reported residual activity be below 50%?
NOT MET

Bench note: check whether `NCC(=O)Nc1ccc(-n2nc(C(F)(F)F)cc2-c2ccc3c(ccc4ccccc43)c2)cc1` shows residual activity below 50%
NOT MET

Say whether its residual activity is strictly beneath 50%. Entry: `C[C@H]1CCCC(=O)CCC/C=C/c2cc(O)cc(O)c2C(=O)O1`
NOT MET

###

Target: JAK2 JH1 JH2 (human)
Assay: radiometric filter-binding kinase assay
Conditions: compound 1.0 µM
We label by threshold. Values of residual activity strictly beneath 80% are met. Values of 80% and up are not met.

Is residual activity of `COc1cc(O)c2c(c1)/C=C/C[C@H](O)[C@H](O)C(=O)/C=C\C[C@H](C)OC2=O` strictly below 80%?
met

Input Nc1cccc2c1CN(C1CCC(=O)NC1=O)C2=O (stereo not given) ; condition: residual activity strictly below 80%. Does it hold?
not met

Does the reported residual activity of `N#Cc1c(C2CCNCC2)cc(-c2c(O)cccc2OCC2CC2)nc1N` stay below 80%?
met

Here's an entry: `O=C(N[C@@H](COc1ccc2[nH]c(=O)[nH]c2c1)c1ccccc1)c1cccn(Cc2ccc(F)c(F)c2)c1=O` . Is its residual activity below 80%?
not met

Please determine if `Oc1ccc2ccccc2c1SSc1c(O)ccc2ccccc12` is below 80% in terms of residual activity.
met

###

Please provide measured residual activity for the entries that follow.
Biological target: UniProt P54753
Sequence (P54753 whole entry, looked up): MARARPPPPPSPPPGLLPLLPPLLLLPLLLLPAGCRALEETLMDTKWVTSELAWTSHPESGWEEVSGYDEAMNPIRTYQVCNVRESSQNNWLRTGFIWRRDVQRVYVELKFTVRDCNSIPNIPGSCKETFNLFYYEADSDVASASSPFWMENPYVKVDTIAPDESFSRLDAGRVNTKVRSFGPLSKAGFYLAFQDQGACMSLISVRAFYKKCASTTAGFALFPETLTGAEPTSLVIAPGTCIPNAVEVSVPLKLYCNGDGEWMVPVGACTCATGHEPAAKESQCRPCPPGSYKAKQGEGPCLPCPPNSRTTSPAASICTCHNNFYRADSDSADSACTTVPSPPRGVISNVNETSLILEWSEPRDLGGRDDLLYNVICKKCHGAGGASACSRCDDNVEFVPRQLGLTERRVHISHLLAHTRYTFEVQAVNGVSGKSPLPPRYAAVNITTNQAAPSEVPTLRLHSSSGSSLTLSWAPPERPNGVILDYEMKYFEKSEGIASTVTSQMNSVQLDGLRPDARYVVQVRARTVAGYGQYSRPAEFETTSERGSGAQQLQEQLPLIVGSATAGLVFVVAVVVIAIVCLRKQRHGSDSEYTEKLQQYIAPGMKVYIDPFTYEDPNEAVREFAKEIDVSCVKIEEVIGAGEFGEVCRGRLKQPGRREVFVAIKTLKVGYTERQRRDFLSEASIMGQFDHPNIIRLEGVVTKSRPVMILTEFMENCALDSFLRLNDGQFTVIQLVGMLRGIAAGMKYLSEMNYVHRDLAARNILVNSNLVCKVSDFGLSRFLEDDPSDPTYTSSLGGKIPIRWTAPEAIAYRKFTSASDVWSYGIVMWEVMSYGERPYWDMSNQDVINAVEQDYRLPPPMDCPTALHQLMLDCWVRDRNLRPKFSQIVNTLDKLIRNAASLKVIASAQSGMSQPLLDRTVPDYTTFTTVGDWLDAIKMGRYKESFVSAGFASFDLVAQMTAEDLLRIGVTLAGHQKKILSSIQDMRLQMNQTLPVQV
Assay: radiometric filter-binding kinase assay
Conditions: compound 1.0 µM
Please give a number only; it is taken to be in %.

residual activity for `O=C(O)c1cc(N=Nc2ccc(S(=O)(=O)Nc3ccccn3)cc2)ccc1O` is 102

So, `COc1ccc(-n2ncc3cnc(Nc4cc(OC)c(OC)c(OCCCN5CCN(C)CC5)c4)nc32)cc1` ? Its residual activity was 16

For record COc1cc(O)c2c(c1)[C@H]1OC1C[C@H](O)[C@H](O)C(=O)/C=C\C[C@H](C)OC2=O (some centres undefined) the listed residual activity is 92

Reported residual activity for CC1=C(CO)C(=O)O[C@@H]([C@@H](C)[C@H]2CC[C@H]3[C@@H]4C[C@H]5O[C@]56[C@@H](O)C=CC(=O)[C@]6(C)C4CC[C@]23C)C1 (some centres undefined) was 104

###

I'd be grateful if you could share measured residual activity for these entries.
Target: PTK6 (human)
Assay: radiometric filter-binding kinase assay
Conditions: compound 0.1 µM
Please reply with the bare figure in % and do not write the unit itself.

The recorded residual activity for entry `O=C(Nc1nc2cc(C(F)(F)F)cc(NC3CC3)n2n1)c1cccnc1` equals 130

response.value for `C=CC(=O)N1CCC[C@@H](n2nc(-c3ccc(Oc4ccccc4)cc3)c3c(N)ncnc32)C1` (field: residual activity) = 10

The reported residual activity of the compound `Cc1ccc(-c2ccc3c(ccc4sc5c(c43)NC[C@@H](C)NC5=O)n2)cn1` was 121

For reference, reported residual activity for `O=C(N[C@@H](COc1ccc2[nH]c(=O)[nH]c2c1)c1ccccc1)c1cccn(Cc2ccc(F)c(F)c2)c1=O` stands at 120

Reported residual activity of `CN(C)C/C=C/C(=O)Nc1cccc(C(=O)Nc2ccc(Nc3nccc(-c4cccnc4)n3)cc2)c1` : 81

The reported residual activity of the compound `O=C(NCCCNc1nc(Nc2cccc(CN3CCOCC3)c2)ncc1C1CC1)C1CCC1` was 96

Short answer for `COc1ccc(-n2ncc3cnc(Nc4cc(OC)c(OC)c(OCCCN5CCN(C)CC5)c4)nc32)cc1` : residual activity was 46

###

Molecular target: EPHB4 (human) (UniProt P54760)
Sequence (P54760 whole entry, looked up): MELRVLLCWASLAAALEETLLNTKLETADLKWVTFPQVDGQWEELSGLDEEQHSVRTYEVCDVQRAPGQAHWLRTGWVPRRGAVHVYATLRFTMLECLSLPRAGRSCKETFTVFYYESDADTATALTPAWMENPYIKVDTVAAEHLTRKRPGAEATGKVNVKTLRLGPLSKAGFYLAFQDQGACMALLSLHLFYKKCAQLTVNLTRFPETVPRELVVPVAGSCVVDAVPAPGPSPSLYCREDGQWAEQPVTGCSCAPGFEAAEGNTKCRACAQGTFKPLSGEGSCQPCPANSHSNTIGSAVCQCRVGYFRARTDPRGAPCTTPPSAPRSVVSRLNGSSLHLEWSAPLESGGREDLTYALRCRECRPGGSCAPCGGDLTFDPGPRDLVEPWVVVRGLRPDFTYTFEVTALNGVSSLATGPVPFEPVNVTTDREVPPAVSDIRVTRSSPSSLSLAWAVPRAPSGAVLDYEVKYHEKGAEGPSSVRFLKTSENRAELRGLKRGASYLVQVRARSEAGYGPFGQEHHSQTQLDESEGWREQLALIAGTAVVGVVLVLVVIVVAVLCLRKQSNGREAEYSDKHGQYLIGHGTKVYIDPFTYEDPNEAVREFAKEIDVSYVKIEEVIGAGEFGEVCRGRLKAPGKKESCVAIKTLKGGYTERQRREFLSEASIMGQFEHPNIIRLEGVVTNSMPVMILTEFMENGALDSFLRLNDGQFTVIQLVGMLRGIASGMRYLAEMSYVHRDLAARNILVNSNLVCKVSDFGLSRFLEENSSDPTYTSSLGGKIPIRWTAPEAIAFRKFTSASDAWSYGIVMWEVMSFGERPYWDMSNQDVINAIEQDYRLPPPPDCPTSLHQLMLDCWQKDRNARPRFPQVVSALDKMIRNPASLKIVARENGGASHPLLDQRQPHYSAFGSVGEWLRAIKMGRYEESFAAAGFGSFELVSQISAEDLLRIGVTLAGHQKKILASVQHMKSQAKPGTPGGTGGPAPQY
Test: radiometric filter-binding kinase assay
Conditions: compound 0.1 µM
reported_property: residual activity (%)
Hi! Could you send only the number? It should be in %, unit omitted.

Kindly note the recorded residual activity for `O=C(O)c1ccc(-c2c[nH]c3ncc(-c4ccccc4)cc23)cc1C1CCCC1` , which is 122

residual activity for CNC(=O)C1[C@H]2O[C@@](C)([C@@H]1N)n1c3ccccc3c3c4c(c5c6ccccc6n2c5c31)C(=O)NC4 (stereo not given in full) is 60

residual activity reported for this compound `Cc1ccc(-c2ccc3c(ccc4sc5c(c43)NC[C@@H](C)NC5=O)n2)cn1` : 110

Lab note: `CCn1c(-c2nonc2N)nc2cncc(CNC3CCNCC3)c21` gave residual activity of 105

Per the record, `NC(=O)c1cc(-c2ccnc(NC3CCCCC3)c2)nc(N2CCNCC2)c1` has residual activity of 103

Measured values drawn from the kinase profiling compilation of Christmann-Franck et al. (2016) for this set.
